# assayed_target: mNpr1 (Mus musculus, UniProt P18293)
# Construct: host or cells: HEK-293, transient co-transfection with pGS-40F
# Sequence (P18293 29-1057): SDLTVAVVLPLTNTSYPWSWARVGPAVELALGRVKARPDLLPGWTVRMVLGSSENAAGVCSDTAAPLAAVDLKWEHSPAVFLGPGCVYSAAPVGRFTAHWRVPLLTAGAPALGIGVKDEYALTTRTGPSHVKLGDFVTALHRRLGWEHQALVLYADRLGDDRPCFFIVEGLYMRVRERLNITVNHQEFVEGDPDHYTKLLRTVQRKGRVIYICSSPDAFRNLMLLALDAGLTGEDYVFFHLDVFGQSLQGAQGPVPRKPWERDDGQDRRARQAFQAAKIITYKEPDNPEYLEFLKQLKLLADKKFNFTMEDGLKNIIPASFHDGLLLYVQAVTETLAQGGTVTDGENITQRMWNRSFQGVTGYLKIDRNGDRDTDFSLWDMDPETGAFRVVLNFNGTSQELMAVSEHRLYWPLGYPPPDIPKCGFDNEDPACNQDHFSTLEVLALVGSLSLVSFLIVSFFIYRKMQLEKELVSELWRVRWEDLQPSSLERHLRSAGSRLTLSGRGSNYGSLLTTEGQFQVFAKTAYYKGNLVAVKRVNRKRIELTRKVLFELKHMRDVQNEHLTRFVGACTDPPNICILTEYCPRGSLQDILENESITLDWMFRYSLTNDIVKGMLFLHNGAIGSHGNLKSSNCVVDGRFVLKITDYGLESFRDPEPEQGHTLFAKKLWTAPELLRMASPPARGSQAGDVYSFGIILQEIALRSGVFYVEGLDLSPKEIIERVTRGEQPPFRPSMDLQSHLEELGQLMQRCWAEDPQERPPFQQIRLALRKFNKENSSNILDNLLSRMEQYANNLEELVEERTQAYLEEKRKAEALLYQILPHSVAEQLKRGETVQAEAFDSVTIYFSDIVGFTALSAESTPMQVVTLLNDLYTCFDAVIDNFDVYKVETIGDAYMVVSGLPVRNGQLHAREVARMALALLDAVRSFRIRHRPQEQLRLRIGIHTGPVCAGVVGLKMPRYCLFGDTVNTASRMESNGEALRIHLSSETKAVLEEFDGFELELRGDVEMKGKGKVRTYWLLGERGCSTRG
# protocol_summary: GloSensor assay, HEK-293 cells transiently expressing mNpr1 and pGS-40F
# Type: cell-based
# reported_conditions: calculated with Cheng-Prusoff equation from Table 6; read-out: Ki mNpr1 GloSensor™ [μM] (mean ± SEM)
Hi there, I'd appreciate the recorded Ki for every entry that follows.
Give bare numbers, in µM.

As a guide, the following entries are already answered.
smiles_string | units_label | value_observed
COc1ccccc1-c1n[nH]c2ncc(C(=O)NCc3cccnc3)nc12 | µM | 1.69
Cc1nn2c(c1-c1ccccc1OCc1ccccc1)N(C(=O)Cc1ccccn1)CCC2 | µM | 0.57
CCC(CC)c1cc([C@H]2CN3CC[C@H]2C[C@@H]3CNS(=O)(=O)c2cccs2)nc(-c2ccncc2)n1 | µM | 0.25

Consider now this further compound.
Exercise: Enter measured Ki, system mNpr1 (Mus musculus, UniProt P18293), for the compound shown: COc1ccc(C2(C(=O)N3CCC4(CC3)c3nccn3-c3ccccc3CN4C)CC2)cc1
Solution: 0.26

The origin of these recorded values is patent US11324725B2.
